Attribution: patent US20240254245A1

- TGT: T1, human RANKL protein (Sino Biological, 11682-HNCH) (human, UniProt O14788 136-317, limits assumed)
- T1 construct: Bought protein
- T1 sequence (looked up): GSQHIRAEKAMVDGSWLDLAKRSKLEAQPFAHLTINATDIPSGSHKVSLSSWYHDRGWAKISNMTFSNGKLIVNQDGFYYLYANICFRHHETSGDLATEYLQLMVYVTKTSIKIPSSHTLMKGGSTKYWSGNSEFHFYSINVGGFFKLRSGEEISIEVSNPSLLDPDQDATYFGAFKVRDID
- ASSAY INFO: SPR (Biacore), antibody captured on Protein A chip, RANKL in flow, 1:1 fit

{"BINDER": "2-52L (antibody, V domains shown, Variable regions fused to human constant regions) VH: EVQLLESGGGLVQPGGSLRLSCAASGFTFSSYAMSWVRQAPGKGLEWVSGITGSGGSTYYADSVKGRFTISRDNSKNTLYLQMNSLRAEDTAVYYCAKDPGTTVIMSWFDPWGQGTLVTVSS VL: EIVLTQSPGTLSLSPGERATLSCRASQSVRGRYLAWYQQKPGQAPRLLIYQGSSRATGIPDRFSGSGSGTDFTLTISRLEPEDFAVFYCQQYGSSPRTFGQGTKVEIK", "koff": "0.000222 s⁻¹"}
{"BINDER": "3-20L (antibody, IgG4, V domains shown, Variable regions fused to human constant regions) VH: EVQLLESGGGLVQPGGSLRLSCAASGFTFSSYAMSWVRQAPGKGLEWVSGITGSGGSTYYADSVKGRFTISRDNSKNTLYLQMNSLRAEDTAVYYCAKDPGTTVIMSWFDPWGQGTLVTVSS VL: EIVLTQSPGTLSLSPGERATLSCRASQAIRGPNLAWYQQKPGQAPRLLIYDTSSRATGIPDRFSGSGSGTDFTLTISRLEPEDFAVFYCQQYGSSPRTFGQGTKVEIK", "koff": "0.000272 s⁻¹"}
